Measured Total radiation intensity by item
# System: BALB/C mice
# ASSAY: In vivo imaging of Fluc-mRNA LNP expression in mice
# CONDITION SUMMARY: 12 h; 5 μg Fluc-mRNA LNP intramuscular, mice

Here's what some known entries look like.
CO[C@@H]1[C@H](OP(=O)(O)OC[C@H]2O[C@@H](n3cnc4c(=O)[nH]c(N)nc43)[C@H](O)[C@@H]2O)[C@@H](COP(=O)(O)OP(=O)(O)OP(=O)(O)OC[C@H]2O[C@@H]([n+]3cn(C)c4c(=O)[nH]c(N)nc43)[C@H](O)[C@]2(C)NC(C)=O)O[C@H]1n1cnc2c(N)ncnc21 [YK-CAP-106]: 6.85 ×108 p/s
CCN(CC)C(=O)[C@H]1[C@@H](O)[C@H]([n+]2cn(C)c3c(=O)[nH]c(N)nc32)O[C@@H]1COP(=O)(O)OP(=O)(O)OP(=O)(O)OC[C@H]1O[C@@H](n2cnc3c(N)ncnc32)[C@H](OC)[C@@H]1OP(=O)(O)OC[C@H]1O[C@@H](n2cnc3c(=O)[nH]c(N)nc32)[C@H](O)[C@@H]1O [YK-CAP-111]: 9.34 ×108 p/s
CO[C@@H]1[C@H](OP(=O)(O)OC[C@H]2O[C@@H](n3cnc4c(=O)[nH]c(N)nc43)[C@H](O)[C@@H]2O)[C@@H](COP(=O)(O)OP(=O)(O)OP(=O)(O)OC[C@@]2(OC)O[C@@H]([n+]3cn(C)c4c(=O)[nH]c(N)nc43)[C@H](O)[C@@H]2O)O[C@H]1n1cnc2c(N)ncnc21 [compound 5227, reference compound]: 1.45 ×108 p/s
CCO[C@@H]1[C@H](OP(=O)(O)OC[C@H]2O[C@@H](n3cnc4c(=O)[nH]c(N)nc43)[C@H](O)[C@@H]2O)[C@@H](COP(=O)(O)OP(=O)(O)OP(=O)(O)OC[C@H]2O[C@@H]([n+]3cn(C)c4c(=O)[nH]c(N)nc43)[C@H](O)[C@@H]2O)O[C@H]1n1cnc2c(N)ncnc21 [CAP-2′O-ethyl, reference compound]: 4.80 ×108 p/s
COC[C@]1(COP(=O)(O)OP(=O)(O)OP(=O)(O)OC[C@H]2O[C@@H](n3cnc4c(N)ncnc43)[C@H](OC)[C@@H]2OP(=O)(O)OC[C@H]2O[C@@H](n3cnc4c(=O)[nH]c(N)nc43)[C@H](O)[C@@H]2O)O[C@@H]([n+]2cn(C)c3c(=O)[nH]c(N)nc32)[C@H](O)[C@@H]1O [YK-CAP-117]: 8.00 ×108 p/s

Turning now to a further molecule:
BALB/C mice data for CNc1ncnc2c1ncn2[C@@H]1O[C@H](COP(=O)(O)OP(=O)(O)OP(=O)(O)OC[C@H]2O[C@@H]([n+]3cn(C)c4c(=O)[nH]c(N)nc43)[C@H](O)[C@@H]2O)[C@@H](OP(=O)(O)OC[C@H]2O[C@@H](n3cnc4c(=O)[nH]c(N)nc43)[C@H](O)[C@@H]2O)[C@H]1OC [m6A, reference compound] ; its Total radiation intensity: 2.12 ×108 p/s

Ref: patent US12576099B2
